Origin of the recorded values: PubChem BioAssay (NCI)

# Tested on: MOLT-4 leukemia
# test: NCI tumour cell line growth inhibition, 48 h
*1 amine or outer side, *2 acyl side, *3 side chain or, on linkers, in order; H or OH if unused. Where a SMILES comes first, the peptide text is derived from it. The star is where a group is joined. γGlu = O=C(O)[CH](CCC(=O)[*:2])N[*:1]; NHOH = ON*

{"columns": ["compound", "TGI"],
 "data": [
  ["COc1cc2ncnc(Nc3cccc(Br)c3)c2cc1OC", "> 65.5 µM"],
  ["CCN(CC)C1=Nc2ccccc2-n2ccnc2C1", "> 100 µM"],
  ["Clc1cccc(-c2cc(-c3ccc4c(c3)OCCO4)[nH]n2)c1", "74.6 µM"],
  ["NC(CCC(=O)NC(CCC(=O)NO)C(=O)NCC(=O)O)C(=O)O (configuration not stated) (γGlu-Glu(NHOH)-Gly-OH; configuration not given here)", "> 100 µM"],
  ["O=C(CSc1nc2ccccc2c(=O)n1-c1ccccc1)N=Nc1c(O)[nH]c2ccc(Br)cc12", "> 29.4 µM"],
  ["O=C(O)c1ccccc1NS(=O)(=O)c1ccc(Cl)cc1", "> 100 µM"],
  ["CC1(N2CCOCC2)CC2C(=[N+]1[O-])CCC/C2=N/O (configuration not stated)", "> 100 µM"],
  ["Fc1ccc(F)c(C=NC23CC4CC(CC(C4)C2)C3)c1", "> 10 µM"],
  ["c1ccc(CCCN2C3CCC2CN(CCOC(c2ccccc2)c2ccccc2)C3)cc1", "25.3 µM"],
  ["O=C(O)C1CCCN1 (configuration not stated)", "> 100 µM"],
  ["Cc1ccccc1NC(=O)C(=O)C(C1OC(=O)c2ccccc21)[N+](=O)[O-] (configuration not stated)", "> 100 µM"],
  ["O=C(c1ccccc1)c1nc2ccc(Cl)cc2cc1C(Br)Br", "11.8 µM"]
]}

---

# Tested on: SF-268 CNS
# test: NCI tumour cell line growth inhibition, 48 h; in the data active = GI50 below about 0.43 µM; inactive = the rest
Outcome codes: class 1 = active, class 0 = inactive

{"columns": ["compound", "category"],
 "data": [
  ["COc1cc(-c2csc(NC(=O)Nc3ccc(Cl)cc3)n2)cc(OC)c1OC", "class 0"],
  ["CCCCCCCCCCCC1=NC(C)(C)CN1C(C)C", "class 0"],
  ["Cc1cc2c(cc1Cl)SC(=Nc1ccc(Cl)cc1)N(S(=O)(=O)c1ccc(Br)s1)S2(=O)=O", "class 0"],
  ["CN1CCC2(CC1)C(=O)Nc1cc(NC(=O)c3ccc4c(c3)C[C@@H]3C(C)(C)[C@H](O)[C@H](F)C[C@@]3(C)O4)ccc12", "class 0"],
  ["O=c1c2ccccc2c(=O)n2n1-c1cccc(c1)CSSCc1cccc-2c1", "class 0"],
  ["Cc1ccc(NC(=O)c2ccoc2)cc1-c1ccc(C(=O)NCC2CC2)cc1", "class 0"],
  ["COCCn1c(Nc2ccc(C(=O)NO)cc2)nc2ccccc21", "class 0"],
  ["CN(C)CCN1C(=O)c2cccc3cc(N)cc(c23)C1=O", "class 0"],
  ["Clc1ccc2c(NC3CCC(NC4CCCCC4)CC3)ccnc2c1 (stereo not given)", "class 0"],
  ["CN1CCN(c2ccc3nc(-c4[nH]ncc4Nc4ncnc5[nH]ccc45)[nH]c3c2)CC1", "class 1"]
]}
